From: ChEMBL document CHEMBL1201862

System: SK-MEL-2
Assay: NCI tumour cell line growth inhibition, 48 h
Activity calls are given as the source filed them. Cut-off read from the data, not from the text of the source: active = GI50 up to about 1.1 µM and inactive = higher.
Provide the recorded GI50 for the entries that follow.

Answered cases to consult:
[[record]]
molecule = "C[C@@H]1S[C@H](c2ccccc2F)N2Cc3ccccc3N=C12"
target_entity = "SK-MEL-2"
observable = "GI50"
reported_result = "16.8 µM (inactive)"

[[record]]
molecule = "CC(=O)N(C(=O)CC(=O)N1N=C(c2ccccc2)C(/N=N/c2ccccc2[N+](=O)[O-])C1=O)c1ccc(Cl)cc1 (configuration not stated)"
target_entity = "SK-MEL-2"
observable = "GI50"
reported_result = "> 10 µM (inactive)"

[[record]]
molecule = "C[Si](C)(C)/C=C/CN1C(=O)CCC1O (configuration not stated)"
target_entity = "SK-MEL-2"
observable = "GI50"
reported_result = "> 100 µM (inactive)"

[[record]]
molecule = "O=C(NCCCNCCCNC(=O)c1cc(-c2ccccc2)nc2ccccc12)c1cc(-c2ccccc2)nc2ccccc12"
target_entity = "SK-MEL-2"
observable = "GI50"
reported_result = "2 µM (inactive)"

[[record]]
molecule = "COc1cc2c(cc1OC)-c1cc3cc(OC)c(OC)cc3c(C)[n+]1CC2.O=C([O-])CS(=O)(=O)O"
target_entity = "SK-MEL-2"
observable = "GI50"
reported_result = "> 100 µM (inactive)"

[[record]]
molecule = "CCOC(=O)CSc1nc(-c2ccc(OC)cc2)c(C#N)c(=O)[nH]1"
target_entity = "SK-MEL-2"
observable = "GI50"
reported_result = "> 100 µM (inactive)"

[[record]]
molecule = "CC(=O)O/N=C(Cl)/C(Cl)=N/OC(C)=O"
target_entity = "SK-MEL-2"
observable = "GI50"
reported_result = "> 100 µM (inactive)"

[[record]]
molecule = "CN1CCCNCCN(CCc2ccccn2)CCCN(C)CC1"
target_entity = "SK-MEL-2"
observable = "GI50"
reported_result = "> 100 µM (inactive)"


// for each molecule in input: emit GI50
1. COC(=O)CCC(=O)Nc1cc(C)ccc1C
2. C[C@@]1(CBr)C[C@@](C)(/C=C/Cl)[C@@H](Cl)C[C@H]1Cl
3. COc1cccc(C(C#N)NNC(=O)c2c(Cl)c(Cl)c(Cl)c(Cl)c2-c2nc3cc(C(=O)c4ccccc4)ccc3[nH]2)c1O (configuration not stated)
4. C[N+](C)(C)CC1CCCC(C[N+](C)(C)C)C1O (configuration not stated)
5. CC(=O)OC1C=C(C=O)C(O)(C=O)C2(C)CCCC(C)(C)C12 (configuration not stated)
6. O=c1c2cc(-c3ccccc3)cnc2sn1-c1ccc(Oc2ccccc2)cc1

A:
["> 100 µM (inactive)", "2.74 µM (inactive)", "4.05 µM (inactive)", "> 100 µM (inactive)", "2.86 µM (inactive)", "> 100 µM (inactive)"]

// for each molecule in input: emit GI50
1. N#CCCN(CCC#N)c1ccc(/C=C2\N=C(c3ccccc3)N(c3ccccc3)C2=O)cc1
2. Cc1ccc(C(=O)N2CCCCC2)cc1/N=N/N(C)C
3. OC[C@H]1O[C@@H](n2cnc3c(S)ncnc32)[C@H](O)[C@@H]1O

A:
1: > 100 µM (inactive); 2: > 100 µM (inactive); 3: 1490 µM (inactive)
